System: PPARg:RXRa (NR concentration 180 nM, RXRa partner concentration 90 nM)
Test summary: PBM binding z-score (relative to random genomic background probes); higher = stronger binding; sequences stand for … in GC…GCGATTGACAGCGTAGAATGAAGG
Recorded PBM binding z-score, one value per entry.
Returns: the value as a bare number; no unit string appended.

Reference set (5 entries):
sequence_text=ATATGTAGGTTAAGGGTCATTCTGGTTGGTTCGC assay_system="PPARg:RXRa (NR concentration 180 nM, RXRa partner concentration 90 nM)" measurement=11.4
sequence_text=CCTGCTAGGTCATCGTCAGCTAATCTACAGTATG assay_system="PPARg:RXRa (NR concentration 180 nM, RXRa partner concentration 90 nM)" measurement=2.06
sequence_text=CGAACTAGGTCAAGAACAGTGAATCTCCGCACGC assay_system="PPARg:RXRa (NR concentration 180 nM, RXRa partner concentration 90 nM)" measurement=6.53
sequence_text=ATATGTAGGTTACGGGTCATTCAGGTTGGTTCGC assay_system="PPARg:RXRa (NR concentration 180 nM, RXRa partner concentration 90 nM)" measurement=9.4
sequence_text=CAAACTAGGTCACGAACGGTCAAAGTCGAATGAC assay_system="PPARg:RXRa (NR concentration 180 nM, RXRa partner concentration 90 nM)" measurement=9.57

*Q* Complete the entry with PBM binding z-score for "TCTTGTAGATCAAGCAGGTTTAGAAAGCCTGAGT"
*A* -0.639

*Q* In one line, give reported PBM binding z-score of the entry "GCTCGGAGGACAACGTCAGAGCTTTGTCCGTAGA" .
*A* -0.651

*Q* Dear colleague, please send me the reported PBM binding z-score for "CCTCGGATGACAACAGGAGGTCAGAGCTGCCAGA" when you can.
*A* 0.547

*Q* Name the recorded PBM binding z-score of the item "CCCAGCAGGCCAGGGTCACTCAAGCATTTCGCTT" in your answer.
*A* 0.0881

----------
Tested on: PPARg DBDmut:RXRa IVT, anti-PPARg (DBD mutation: PPARg1 K132A/R137A, NR concentration 270 nM, RXRa partner concentration 90 nM)
Test summary: PBM binding z-score (relative to random genomic background probes); higher = stronger binding; sequences stand for … in GC…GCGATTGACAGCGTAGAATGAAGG
Parameter threshold = 0.4. Response is met when PBM binding z-score meets or exceeds it, else not met.

Here are 6 sequences together with their reported answers.
sequence_text=TCACGGAGGACACGAAGGTCAGAGCTTTCCAGAG class_label="not met"
sequence_text=TCGAGTAGGTGAGTCGGGGCATTCAGCCAACATA class_label="not met"
sequence_text=TCCTATAGGTAAAGGTGAAAGTCGAACGATATGA class_label=met
sequence_text=GCGACTGGGGGATCAGCAGGTTACCATAACTTAA class_label=met
sequence_text=CGTCCAAGGTCAAAGGTCAGTTAAGAGATGACGG class_label=met
sequence_text=TCTTTTAGATCAAGCAGGTTAAGAAAGCCTGAGT class_label=met

Here's the next entry for you.
*Q* I'd appreciate it if you could say whether "TTACCAAGGTAAAGGTCGTTGATCCCTCTGTAGA" has PBM binding z-score at least equal to 0.4.
*A* met

----------
Tested on: VDR homodimer (NR concentration 270 nM)
Test summary: PBM binding z-score (relative to random genomic background probes); higher = stronger binding; sequences stand for … in GC…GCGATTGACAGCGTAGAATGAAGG
Lab note: class by PBM binding z-score, see bucket A: < 0.2; bucket B: ≥ 0.2 and < 2; bucket C: ≥ 2

Use these answered entries as a reference point.
sequence_text=TCTTGTAGATCAACAGGGGGTTAAGAAAGATCGA class_label="bucket B"
sequence_text=ATCTCTAGATAACCAAGTTCAGTGAATGCCGAAC class_label="bucket C"
sequence_text=TAGCCTAGGTCATCGGGCCAGTATAGTACGCATC class_label="bucket B"
sequence_text=GGAACGAGAGCAAAGTTGATAGCATCTGTCGACG class_label="bucket A"
sequence_text=GATACAGGGTCAAGGCAAGAGTACGCGTATTGAT class_label="bucket C"

*Q* Exercise: read the entry "CCTCGGAGGACAACAGGAGGGCAGAGCTGCCAGA" and state which class it falls under.
*A* bucket A

*Q* Exam item: assign "CCTTACGGGTCGCTCCAGGTTATAGCATCGGAGT" to the correct category.
*A* bucket A

*Q* Band for "TCATATAGGTAAAATGTGAAAGTCGGTGTGGTAA" ?
*A* bucket A

*Q* Quick check: band for "CGTCCAAGGTCAAGGTCAGTCAAAGAGACTCGAA"
*A* bucket C

*Q* Dear colleague, I would appreciate it if you could identify the bin for "GCTTGTAGATCAACGTTAAGAAAGACTAAGCTAA" and reply at your convenience.
*A* bucket A

*Q* Lab note: which band did "ACAGACAGGTGAGTGAAGGAAACTCAGCTGGACG" land in?
*A* bucket A

*Q* Into which category would you place "CGTCCAAGGTCAATGCTAGGTAAGTGAAAGCATT" ?
*A* bucket C

*Q* Entry "GATACAGGGTCAAGGGCAGAGTACGCGTATTGAT" belongs to which category?
*A* bucket C

----------
Test system: RARb homodimer (NR concentration 270 nM)
Test summary: PBM binding z-score (relative to random genomic background probes); higher = stronger binding; sequences stand for … in GC…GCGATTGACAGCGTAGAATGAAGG
Experimental endpoint: PBM binding z-score
Give the value as a plain number.

Some solved entries appear below for comparison.
sequence_text=TCAAATAGGTAAAAGGTGAAAGTCGGTGTGGTAA experimental_endpoint="PBM binding z-score" measurement=2.05
sequence_text=CGAACTAGGTCATTGACGGGACAGTGAATAGTAA experimental_endpoint="PBM binding z-score" measurement=2.6
sequence_text=GCGACTGGGGCATCAGCAGGTTACTATAACTTAA experimental_endpoint="PBM binding z-score" measurement=0.782
sequence_text=TCTTGTAGATCAACAGGAGGTTAAAAAAGATCGA experimental_endpoint="PBM binding z-score" measurement=0.404
sequence_text=CTACCAAGGTGAACAAGGTCGCTGATTACTATTC experimental_endpoint="PBM binding z-score" measurement=2.04
sequence_text=CAAACTAGGTCAAATGTCAAAGTCGAGCCAACCA experimental_endpoint="PBM binding z-score" measurement=3.4

*Q* Identify measured PBM binding z-score associated with "ACAGACAGGTGAGCGAAGGTAACTCAGCTGGACG"
*A* 0.0254

*Q* Tell me PBM binding z-score reported for "AGTCAAAGTCCAGGACGAGGTAACGTAAAGCACG"
*A* 0.381

*Q* Give a short answer stating reported PBM binding z-score for "GCTTACGGGTCAAAGGTTAGAGCATGAATAGAAT" .
*A* 3.1

*Q* Kindly indicate its recorded PBM binding z-score. Item: "TGAATGAGGTTATAAGATCAGGGACCGTTGCAAA"
*A* 0.518

*Q* # return recorded PBM binding z-score for input "CAAACTAGGTCAAGGCCAAAGTCGGTTTGTGCCA"
*A* 3.53

----------
Recorded PBM binding z-score by entry
Tested on: PPARg:RXRa IVT, anti-PPARg (NR concentration 270 nM, RXRa partner concentration 90 nM)
Test summary: PBM binding z-score (relative to random genomic background probes); higher = stronger binding; sequences stand for … in GC…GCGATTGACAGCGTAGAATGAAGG
The reply should be a number, written without any unit.

sequence_text=GCTTGTAGATCCAGGTTAAGAAAGACTAAGCTAA experimental_endpoint="PBM binding z-score" measurement=0.859
sequence_text=CCGACTGGGGCAGAAAGCTTACCATACCATCCGG experimental_endpoint="PBM binding z-score" measurement=0.739

Kindly consider the entry below.
*Q* Look up PBM binding z-score of "GGTAGCAGGCCATTTGGGTCACTCAATGACGGGC" and report it.
*A* 2.81

----------
System: PPARg:RXRa 90nM:30nM, anti-RXR (NR concentration 90 nM, RXRa partner concentration 30 nM)
Test summary: PBM binding z-score (relative to random genomic background probes); higher = stronger binding; sequences stand for … in GC…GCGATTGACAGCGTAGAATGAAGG
Below, each entry is listed alongside its reported PBM binding z-score.
Lab note: record the figure alone, no unit after it.

Below, 7 sequences whose answers are already recorded.
sequence_text=CAAACTAGGTCACAGAGGTCCAAGTCCGTGCGTA measurement=7.32
sequence_text=GGAACGAGGGCAAGTTGTTAGCAGAGTTTGATGG measurement=0.479
sequence_text=CCTTACGGGTCCAGGTTATAGCACGGGTGGTACG measurement=-0.604
sequence_text=CGAACTAGATCATTGACAGGACAGTGAATAGTAA measurement=0.113
sequence_text=TCTTGTAGATCAATAGAGGTTAAGAAGGTGCGCT measurement=1.95
sequence_text=CCTAGTTGGTCAAGGTCACACGCGCTATAGGTAC measurement=3.1
sequence_text=TCTCGGAGGAAACGAAGGTCAGAGCTTTCCAGAG measurement=1.39

Then this sequence:
*Q* Retrieve PBM binding z-score on PPARg:RXRa 90nM:30nM, anti-RXR (NR concentration 90 nM, RXRa partner concentration 30 nM); query "TCATATAGGTAATATAGGTGAAAGTCGGCATCTA"
*A* 3.94
